Reference source for all entries: PubChem BioAssay (NCATS)

- ASSAY_NAME: qHTS of pediatric cancer cell lines to identify multiple opportunities for drug repurposing: Primary screen for SK-N-MC cells (AID 1347093)
- CONDITION_SUMMARY: SK-N-MC viability, CellTiter-Glo luminescence, 48 h; series mostly up to 46 µM
Results filed as inconclusive are left out. Active and inactive are the calls of the source. Calls follow the shape of the dose curve; as a rule, active = well fitted cell-killing curve with a large enough effect; inconclusive = small, poorly fitted or top-dose-only effect; inactive = no such curve, though single readings can be large or run the other way.
Labels: active, inactive

CC(CN(C)C)CN1c2ccccc2CCc2ccccc21 (configuration not stated)	inactive
CN1CCCCC1CCN1c2ccccc2Sc2ccc(S(C)=O)cc21 (configuration not stated)	inactive
O=C(O)Cc1sc(-c2ccccc2)nc1-c1ccc(Cl)cc1	inactive
CC(=O)NC(Cc1ccccc1)C(=O)O (configuration not stated)	inactive
Cc1ccc(C(C)C)cc2c(C)ccc1-2	inactive
C[C@@H](O)[C@H](N)C(=O)O	inactive
NC(=O)c1ncn([C@@H]2O[C@H](CO)[C@@H](O)[C@H]2O)c1N	inactive
CN1CCN(C2Cc3ccccc3Sc3ccc(Cl)cc32)CC1 (configuration not stated)	active
CN1[C@@H]2CC[C@H]1CC(OC(=O)C(O)c1ccccc1)C2 (some centres not stated)	inactive
C[C@]12CC[C@@H]3c4ccc(O)cc4CC[C@H]3[C@@H]1CC[C@@H]2OC(=O)CCC1CCCC1	inactive
CC1(C)CO[C@@H](CC(=O)O)CN1	inactive
CC1(C)OC(=O)NC1=O	inactive
